Reported MIC values for a set of compounds
Test system: extensively drug-resistant A. baumannii clinical isolates (planktonic cell)
Assay: microbe, parasite or virus in culture
Assay type: cell-based, Acinetobacter baumannii
Details: isolate AB7; planktonic; broth microdilution, CAMHB, 37°C 16–20 h, OD600
Bridge positions count the residues as written; N and C are the ends. Square brackets hold non-standard residues; d marks the D form. Peptide text beside a SMILES is read from it. * marks the point of attachment. X1 = CC[C@H](C)CCCCC(=O)*; Dab = NCC[C@H](N)C(=O)O
parameter_measured: MIC (µg/mL)

compound="CNC(C)C1CCC(N)C(OC2C(N)CC(N)C(OC3OCC(C)(O)C(NC)C3O)C2O)O1 (centres unmarked)" modifier_sign=> reported_value=1024
compound=CN[C@H](CC(C)C)C(=O)N[C@H]1C(=O)N[C@@H](CC(N)=O)C(=O)N[C@H]2C(=O)N[C@H]3C(=O)N[C@H](C(=O)N[C@H](C(=O)O)c4cc(O)cc(O)c4-c4cc3ccc4O)[C@H](O)c3ccc(c(Cl)c3)Oc3cc2cc(c3O[C@@H]2O[C@H](CO)[C@@H](O)[C@H](O)[C@H]2O[C@H]2C[C@](C)(N)[C@H](O)[C@H](C)O2)Oc2ccc(cc2Cl)[C@H]1O modifier_sign== reported_value=128
compound=CO/N=C(\C(=O)N[C@@H]1C(=O)N2C(C(=O)O)=C(COC(C)=O)CS[C@H]12)c1csc(N)n1 modifier_sign== reported_value=256
compound="CC[C@H](C)CCCCC(=O)N[C@@H](CCN)C(=O)N[C@H](C(=O)N[C@@H](CCN)C(=O)N[C@H]1CCNC(=O)[C@H]([C@@H](C)O)NC(=O)[C@H](CCN)NC(=O)[C@H](CCN)NC(=O)[C@H](CC(C)C)NC(=O)[C@@H](Cc2ccccc2)NC(=O)[C@H](CCN)NC1=O)[C@@H](C)O [Polymyxin B, polymyxin B] (X1-[Dab]T[Dab][Dab][Dab][dF]L[Dab][Dab]T; lactam 4-C (inferred); N-terminus assumed)" modifier_sign== reported_value=2
compound=CC(C)(O/N=C(\C(=O)N[C@@H]1C(=O)N2C(C(=O)[O-])=C(C[n+]3ccccc3)CS[C@H]12)c1csc(N)n1)C(=O)O modifier_sign== reported_value=256
